Cited source: paper PMC10823475

inhibition at 50 µM for assorted compounds
# system under test: purified HHAT (Homo sapiens, UniProt Q5VTY9)
# Construct: made in house
# Sequence (Q5VTY9 whole entry): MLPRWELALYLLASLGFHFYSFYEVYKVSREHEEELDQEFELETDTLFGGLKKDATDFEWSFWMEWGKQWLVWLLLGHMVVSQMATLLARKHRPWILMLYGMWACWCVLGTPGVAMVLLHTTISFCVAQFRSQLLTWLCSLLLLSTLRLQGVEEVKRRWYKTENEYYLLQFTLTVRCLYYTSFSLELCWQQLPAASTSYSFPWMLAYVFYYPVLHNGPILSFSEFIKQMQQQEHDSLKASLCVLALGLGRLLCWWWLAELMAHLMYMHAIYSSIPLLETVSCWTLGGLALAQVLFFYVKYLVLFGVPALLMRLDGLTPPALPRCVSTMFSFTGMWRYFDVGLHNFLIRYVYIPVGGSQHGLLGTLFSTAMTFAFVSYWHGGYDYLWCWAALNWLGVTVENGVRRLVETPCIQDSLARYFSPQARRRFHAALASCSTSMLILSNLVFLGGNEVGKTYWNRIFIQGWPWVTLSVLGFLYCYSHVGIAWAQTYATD
# assay: Acyl-cLIP assay, inhibition of purified HHAT
# Assay type: biochemical
// note: answer is a bare numeric in %

Some compounds with recorded inhibition at 50 µM:
compound: Clc1ccc(OCC2NCCc3sccc32)cc1 (stereo not shown) [Compound 1]
inhibition at 50 µM / %: 2
--
compound: CC(=O)N1CCCCC1c1ccccc1 (stereo not shown) [Compound 47, 1-(2-Phenylpiperidin-1-yl)ethan-1-one]
inhibition at 50 µM / %: -3
--
compound: CCC(C)CNCC(=O)N1CCc2sccc2C1c1ccccc1O (stereo not shown) [Compound 34]
inhibition at 50 µM / %: 93
--
compound: C=CCNCC(=O)N1CCc2sccc2C1COc1ccc(Cl)cc1 (stereo not shown) [Compound 2]
inhibition at 50 µM / %: 87
--
compound: c1ccc(C2NCCc3sccc32)cc1 (stereo not shown) [Compound 4]
inhibition at 50 µM / %: -16
--
compound: Cc1cccc(C2NCCc3sccc32)n1 (stereo not shown) [Compound 20]
inhibition at 50 µM / %: -2
--
compound: O=C([C@@H]1CCCN1)N1CCc2sccc2C1c1ccccc1 (mixture of isomers) [Compound 9]
inhibition at 50 µM / %: 30
--
compound: N[C@@H](Cc1ccccc1)C(=O)N1CCc2sccc2C1c1ccccc1 (stereo partly shown) [Compound 11]
inhibition at 50 µM / %: -2

[ask] For the compound CCC(C)CNCC(=O)N1CCc2ccc(Cl)cc2C1c1ccccc1 (stereo not shown) [Compound 45] , what inhibition at 50 µM is on record?
[reply] 93

[ask] For the compound CCC(C)CNCC(=O)N1CCc2ccccc2C1c1ccccc1 (stereo not shown) [Compound 38] , what inhibition at 50 µM is on record?
[reply] 95

----------
IC50 for assorted compounds
# system under test: purified HHAT (Homo sapiens)
// note: answer is a bare numeric in µM

Some compounds with recorded IC50:
compound: CCC(C)CNCC(=O)N1CCc2sccc2C1COc1cccc(C)c1 (stereo not drawn)
readout unit: µM
IC50: 1.44

compound: CC(C)CNCC(=O)N1CCc2ccccc2C1c1ccccc1 (stereo not drawn) [Compound 39]
readout unit: µM
IC50: 6.02

compound: C=CC(=O)N1CCc2sccc2C1c1cccc(C)c1 (stereo not drawn)
readout unit: µM
IC50: 15

Okay, now this compound:
[ask] What value of IC50 on purified HHAT (Homo sapiens) does Cc1cccc(C2c3ccsc3CCN2C(=O)CNCCC(C)C)n1 (stereo not drawn) have?
[reply] 4.62

----------
# system under test: purified HHAT (Homo sapiens, UniProt Q5VTY9)
# Construct: made in house
# assay: Acyl-cLIP assay, inhibition of purified HHAT
# Type: biochemical
outcome measure: inhibition at 50 µM (%)
// note: answer is a bare numeric in %

Some compounds with recorded inhibition at 50 µM:
compound: C=CC(=O)N1CCCCC1c1ccccn1 (stereo not drawn) [Compound 49]
inhibition at 50 µM (%): 3
--
compound: CC(=O)N1CCc2sccc2C1c1cccc(C)n1 (stereo not drawn) [Compound 21]
inhibition at 50 µM (%): 82
--
compound: Cc1cccc([C@@H]2c3ccsc3CCN2C(=O)CNCC(C)C)n1 [Compound 28]
inhibition at 50 µM (%): 18
--
compound: CCC(C)CNCC(=O)N1CCc2sccc2C1c1ccccn1 (stereo not drawn) [Compound 19]
inhibition at 50 µM (%): 91
--
compound: C[C@H](N)C(=O)N1CCc2sccc2C1c1ccccc1 (stereo partly drawn) [Compound 7]
inhibition at 50 µM (%): 67

[ask] For the compound CC(=O)N1CCc2sccc2[C@H]1c1cccc(C)n1 [Compound 27] , what inhibition at 50 µM is on record?
[reply] 27

[ask] For the compound Cc1cccc(C2c3ccsc3CCN2C(=O)CNCCC(C)C)n1 (stereo not drawn) [Compound 25] , what inhibition at 50 µM is on record?
[reply] 86

[ask] For the compound CC[C@H](C)CNCC(=O)N1CCc2sccc2C1c1cccc(C)n1 (stereo partly drawn) [Compound 23] , what inhibition at 50 µM is on record?
[reply] 86

[ask] For the compound CC(=O)N1CCc2sccc2C1c1ccccc1 (stereo not drawn) [Compound 5] , what inhibition at 50 µM is on record?
[reply] 85
